I'd appreciate it if you could supply MOR agonist activity, [35S]GTPγS binding to Gαo values for the items below.
# test-target: mu opiate receptor (MOR) (Rattus norvegicus, UniProt P33535)
# Construct: from tissue; host or cells: striatal membrane preparation (rat striatum)
# Sequence (P33535 whole entry): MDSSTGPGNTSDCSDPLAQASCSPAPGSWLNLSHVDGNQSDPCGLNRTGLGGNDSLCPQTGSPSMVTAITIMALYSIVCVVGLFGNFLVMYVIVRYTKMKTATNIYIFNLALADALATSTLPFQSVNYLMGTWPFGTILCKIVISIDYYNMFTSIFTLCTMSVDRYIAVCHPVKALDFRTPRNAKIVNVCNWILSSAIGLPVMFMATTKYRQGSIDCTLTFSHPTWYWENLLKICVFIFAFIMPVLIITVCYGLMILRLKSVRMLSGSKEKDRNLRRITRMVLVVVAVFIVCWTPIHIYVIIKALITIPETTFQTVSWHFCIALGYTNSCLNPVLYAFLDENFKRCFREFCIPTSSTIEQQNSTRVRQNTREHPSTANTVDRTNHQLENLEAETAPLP
# experiment-notes: MOR agonist activity, [35S]GTPγS binding assay using striatal membranes
# Type: biochemical
# Design: reference not given here
# measurement-context: 1 μM compound, striatal membranes
Give bare numbers, in %.

Known MOR agonist activity, [35S]GTPγS binding to Gαo results, listed for orientation:
COc1ccc(S(=O)(=O)N2CCOC23CCN(CC2CC2)CC3)cc1 [Compound C0090M]
341.0
CC(=O)c1ccc(S(=O)(=O)N2CC(CN(C)C)OC23CCN(C)CC3)cc1 (centres unmarked) [Compound C0108M]
258.5
O=C1CN(Cc2ccccc2)C2(CCN(C3CCCCC3)CC2)N1 [C0137M(P7)]
193.8

Please state, for each entry, its recorded MOR agonist activity, [35S]GTPγS binding to Gαo.
1. Cc1ccc(S(=O)(=O)N2CCOC23CCN(CC2CC2)CC3)cc1 [Compound C0134M]
2. CCc1ccc(S(=O)(=O)N2CCOC23CCN(CC2CC2)CC3)cc1 [Compound C0135M]
3. CC(=O)c1ccc(S(=O)(=O)N2CCOC23CCN(CC2CC2)CC3)cc1 [Compound C0095M]
4. CC(=O)c1ccc(S(=O)(=O)N2CCOC23CCN(C)CC3)cc1 [Compound C0093M]
5. CCN1CCC2(CC1)OCCN2S(=O)(=O)c1ccc(OC)cc1 [Compound C0089M]
6. COc1ccc(S(=O)(=O)N2CCC3(CC2)NCCC(=O)N3)cc1 [Compound C0142M]
7. COc1ccc(S(=O)(=O)N2CCOC23CCN(C(C)C)CC3)cc1 [Compound C0133M]
8. C=CCN1CCC2(CC1)OCCN2S(=O)(=O)c1ccc(C(C)=O)cc1 [Compound C0096M]

Reply:
1: 207.3; 2: 310.1; 3: 224.6; 4: 211.8; 5: 295.3; 6: 192.5; 7: 214.8; 8: 328.9
